Parameter MIC Pae: see the listing below.
# System: Pseudomonas aeruginosa ATCC 27853
# measurement.parameters: MHB, 5 × 10^5 CFU/mL, 18 h, 35 °C, triplicate
Non-standard residues stand in square brackets, D forms with d. Residues, ends and D or L forms follow the SMILES beside them. *: point of attachment. Leu(ol) = CC(C)C[C@H](N)CO; Octanoyl = CCCCCCCC(=O)*; Aib = CC(C)(N)C(=O)O
Response body: numeric value in µg/mL, unit text excluded.

With Pseudomonas aeruginosa ATCC 27853 as the test system, provide measured MIC Pae for this compound: CCCCCCCC(=O)NC(C)(C)C(=O)N[C@@H](CCCCN)C(=O)N[C@@H](CC(C)C)C(=O)NC(C)(C)C(=O)N[C@@H](CCCCN)C(=O)NCC(=O)N[C@@H](CC(C)C)C(=O)NC(C)(C)C(=O)NCC(=O)N[C@H](C(=O)N[C@H](CO)CC(C)C)[C@@H](C)CC [Peptide 1] (Octanoyl-[Aib]KL[Aib]KGL[Aib]GI[Leu(ol)])
16

With Pseudomonas aeruginosa ATCC 27853 as the test system, provide measured MIC Pae for this compound: CCCCCCCC(=O)NC(C)(C)C(=O)N[C@@H](CCCCN)C(=O)N[C@@H](CC(C)C)C(=O)N[C@@H](CC(C)C)C(N)=O [Peptide 15, 1-Oct-Aib-Lys-Leu-Leu-NH2] (Octanoyl-[Aib]KLL-NH2)
64

With Pseudomonas aeruginosa ATCC 27853 as the test system, provide measured MIC Pae for this compound: CCCCCCCC(=O)NC(C)(C)C(=O)N[C@@H](CCCCN)C(=O)N[C@@H](CCCCN)C(=O)N[C@@H](CC(C)C)C(=O)NC(C)(C)C(=O)NCC(=O)N[C@H](C(=O)N[C@@H](CC(C)C)C(N)=O)[C@@H](C)CC [Peptide 12] (Octanoyl-[Aib]KKL[Aib]GIL-NH2)
64

---

# System: A. baumannii SI-12 (OXA-23)
# measurement.parameters: MHB, 5 × 10^5 CFU/mL, 18 h, 35 °C, triplicate
Non-standard residues stand in square brackets, D forms with d. Residues, ends and D or L forms follow the SMILES beside them. *: point of attachment. Leu(ol) = CC(C)C[C@H](N)CO; Octanoyl = CCCCCCCC(=O)*; Aib = CC(C)(N)C(=O)O
Parameter MBC A. baumannii SI-12 (OXA-23): see the listing below.
Response body: numeric value in µg/mL, unit text excluded.

Examples with answers:
CCCCCCCC(=O)NC(C)(C)C(=O)N[C@@H](CCCCN)C(=O)N[C@@H](CC(C)C)C(=O)NC(C)(C)C(=O)NCC(=O)NCC(=O)N[C@@H](CC(C)C)C(=O)NC(C)(C)C(=O)NCC(=O)N[C@H](C(=O)N[C@@H](CC(C)C)C(N)=O)[C@@H](C)CC [Peptide 2] (Octanoyl-[Aib]KL[Aib]GGL[Aib]GIL-NH2) :: 32
CCCCCCCC(=O)NC(C)(C)C(=O)N[C@@H](CCCCN)C(=O)N[C@@H](CC(C)C)C(=O)NC(C)(C)C(=O)N[C@@H](CCCCN)C(=O)N[C@@H](CCCCN)C(=O)N[C@@H](CC(C)C)C(=O)NC(C)(C)C(=O)N[C@@H](CCCCN)C(=O)N[C@H](C(=O)N[C@H](CO)CC(C)C)[C@@H](C)CC [Peptide 7] (Octanoyl-[Aib]KL[Aib]KKL[Aib]KI[Leu(ol)]) :: 4
CCCCCCCC(=O)NC(C)(C)C(=O)NCC(=O)N[C@@H](CC(C)C)C(=O)NC(C)(C)C(=O)NCC(=O)NCC(=O)N[C@@H](CC(C)C)C(=O)NC(C)(C)C(=O)N[C@@H](CCCCN)C(=O)N[C@H](C(=O)N[C@H](CO)CC(C)C)[C@@H](C)CC [Peptide 9] (Octanoyl-[Aib]GL[Aib]GGL[Aib]KI[Leu(ol)]) :: 32
CCCCCCCC(=O)NC(C)(C)C(=O)NCC(=O)N[C@@H](CC(C)C)C(=O)NC(C)(C)C(=O)N[C@@H](CCCCN)C(=O)N[C@@H](CCCCN)C(=O)N[C@@H](CC(C)C)C(=O)NC(C)(C)C(=O)NCC(=O)N[C@H](C(=O)N[C@H](CO)CC(C)C)[C@@H](C)CC [Peptide 4] :: 4

Now, please, on to the next molecule.
Given the molecule CCCCCCCC(=O)NC(C)(C)C(=O)N[C@@H](CCCCN)C(=O)N[C@@H](CC(C)C)C(=O)NC(C)(C)C(=O)N[C@@H](CCCCN)C(=O)NCC(=O)N[C@@H](CC(C)C)C(=O)NC(C)(C)C(=O)NCC(=O)N[C@H](C(=O)N[C@H](CO)CC(C)C)[C@@H](C)CC [Peptide 1] (Octanoyl-[Aib]KL[Aib]KGL[Aib]GI[Leu(ol)]) , write its reported MBC A. baumannii SI-12 (OXA-23).
8

---

# System: A. baumannii SI-310 (OXA-24)
# measurement.parameters: colistin-resistant isolate; MHB, 5 × 10^5 CFU/mL, 18 h, 35 °C, triplicate
Non-standard residues stand in square brackets, D forms with d. Residues, ends and D or L forms follow the SMILES beside them. *: point of attachment. Leu(ol) = CC(C)C[C@H](N)CO; Octanoyl = CCCCCCCC(=O)*; Aib = CC(C)(N)C(=O)O
Parameter MBC A. baumannii SI-310 (OXA-24): see the listing below.
Response body: numeric value in µg/mL, unit text excluded.

Examples with answers:
CCCCCCCC(=O)NC(C)(C)C(=O)N[C@@H](CCCCN)C(=O)N[C@@H](CC(C)C)C(=O)NC(C)(C)C(=O)N[C@@H](CCCCN)C(=O)NCC(=O)N[C@@H](CC(C)C)C(=O)NC(C)(C)C(=O)NCC(=O)N[C@H](C(=O)N[C@H](CO)CC(C)C)[C@@H](C)CC [Peptide 1] (Octanoyl-[Aib]KL[Aib]KGL[Aib]GI[Leu(ol)]) :: 4
CCCCCCCC(=O)NC(C)(C)C(=O)N[C@@H](CCCCN)C(=O)N[C@@H](CC(C)C)C(=O)NC(C)(C)C(=O)NCC(=O)NCC(=O)N[C@@H](CC(C)C)C(=O)NC(C)(C)C(=O)NCC(=O)N[C@H](C(=O)N[C@@H](CC(C)C)C(N)=O)[C@@H](C)CC [Peptide 2] (Octanoyl-[Aib]KL[Aib]GGL[Aib]GIL-NH2) :: 32

Now, please, on to the next molecule.
With A. baumannii SI-310 (OXA-24) as the test system, provide measured MBC A. baumannii SI-310 (OXA-24) for this molecule: CCCCCCCC(=O)NC(C)(C)C(=O)NCC(=O)N[C@@H](CC(C)C)C(=O)NC(C)(C)C(=O)N[C@@H](CCCCN)C(=O)N[C@@H](CCCCN)C(=O)N[C@@H](CC(C)C)C(=O)NC(C)(C)C(=O)NCC(=O)N[C@H](C(=O)N[C@H](CO)CC(C)C)[C@@H](C)CC [Peptide 4]
8

---

# Tested on: blood agar plate (Columbia CNA Agar)
# method.notes: Hemolysis on blood agar plate
# measurement.parameters: 50 μg spotted on blood agar, 35 ± 2 °C, 24 h, average of triplicate
# Experimental: Hemolysis zones were visually determined and measured. […] For two additional peptides (6 and 15), only a small hemolysis zone (diameter 4–5 mm) was visible, as compared to that of the positive control (Triton X-100, 13 mm). Briefly, 2 μL of each peptide solution in DMSO (25 mg/mL), corresponding to 50 μg, was spotted on the surface of a blood agar plate (Columbia CNA Agar, Becton Dickinson Italia S.p.A., Florence, Italy). […]
Non-standard residues stand in square brackets, D forms with d. Residues, ends and D or L forms follow the SMILES beside them. *: point of attachment. Leu(ol) = CC(C)C[C@H](N)CO; Octanoyl = CCCCCCCC(=O)*; Aib = CC(C)(N)C(=O)O
Parameter Hemolysis (d, diameter of hemolysis zone): see the listing below.
Response body: numeric value in mm, unit text excluded.

Given the molecule CCCCCCCC(=O)NC(C)(C)C(=O)N[C@@H](CCCCN)C(=O)N[C@@H](CC(C)C)C(=O)N[C@@H](CC(C)C)C(N)=O [Peptide 15, 1-Oct-Aib-Lys-Leu-Leu-NH2] (Octanoyl-[Aib]KLL-NH2) , write its reported Hemolysis (d, diameter of hemolysis zone).
5

Given the molecule CCCCCCCC(=O)NC(C)(C)C(=O)NCC(=O)N[C@@H](CC(C)C)C(=O)NC(C)(C)C(=O)NCC(=O)NCC(=O)N[C@@H](CC(C)C)C(=O)NC(C)(C)C(=O)N[C@@H](CCCCN)C(=O)N[C@H](C(=O)N[C@H](CO)CC(C)C)[C@@H](C)CC [Peptide 9] (Octanoyl-[Aib]GL[Aib]GGL[Aib]KI[Leu(ol)]) , write its reported Hemolysis (d, diameter of hemolysis zone).
10

Given the molecule CCCCCCCC(=O)NC(C)(C)C(=O)NCC(=O)N[C@@H](CC(C)C)C(=O)NC(C)(C)C(=O)NCC(=O)N[C@@H](CCCCN)C(=O)N[C@@H](CC(C)C)C(=O)NC(C)(C)C(=O)NCC(=O)N[C@H](C(=O)N[C@H](CO)CC(C)C)[C@@H](C)CC [Peptide 10] , write its reported Hemolysis (d, diameter of hemolysis zone).
11

Given the molecule CCCCCCCC(=O)NC(C)(C)C(=O)NCC(=O)N[C@@H](CC(C)C)C(=O)NC(C)(C)C(=O)N[C@@H](CCCCN)C(=O)NC(C)(C)C(=O)N[C@@H](CC(C)C)C(=O)NC(C)(C)C(=O)NCC(=O)N[C@H](C(=O)N[C@H](CO)CC(C)C)[C@@H](C)CC [Peptide 6] (Octanoyl-[Aib]GL[Aib]K[Aib]L[Aib]GI[Leu(ol)]) , write its reported Hemolysis (d, diameter of hemolysis zone).
4
